- targetDesc: c-Src SH2;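 further: peptide library displayed on the E. coli surface as eCPX fusions, selected cells deep-sequenced, score is each peptide's frequency after selection divided by its frequency in the input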
- assayName: SH2 binding enrichment of the phosphorylated peptide, bacterial display (enrichment ratio); higher = better substrate or ligand; peptides without Tyr show the background
endpoint: SH2 binding enrichment
Numbers only.

Some solved cases for reference:
sequenceEntry | SH2 binding enrichment
DHPSEYAARQL [ANXA13_Y90_R86H] | 0.483
RFVTRHIFNRE [HLA-DQB1_Y62_Y62H_YF] | 0.293
LFCVHYFHRTF [SRD5A2_Y91] | 0.918
SECCKYKIDNL [OSMR_Y689_P694L] | 0.43
QELRRYLKSGV [MICA_Y194] | 0.465

For every record below, what is its SH2 binding enrichment?
1. EQKKYYNATKK [SCN5A_Y1495_M1498T]
2. MSRNLYSGDCY [DDR2_Y736_Y740C]

OUT:
1. 0.731
2. 0.746

Batch: SH2 binding enrichment for all items listed.
1. TLQNMYGCDVG [HLA-B_Y123_S121N]
2. CDYKKYGKGLR [ZNF445_Y433_Y428C]
3. TEQDPYNSIVR [MMUT_Y364_N366S]

OUT:
0.643
0.6
1.48

List the reported SH2 binding enrichment of each sequence below.
1. SSEFHCVGGFF [CTSC_Y347_Y347C_YF]
2. SFTDPYAQPSL [KMT2D_Y2378_P2382S_YF]
3. SLLLSYFLIKW [NUP160_Y773_P768S_YF]

OUT:
[0.373, 2.12, 1.15]
